Reported log10(IC50), Human immunodeficiency virus type 1 reverse transcriptase (Human immunodeficiency virus 1).
In our notation, the value equals log10 of IC50 in nM.

Req: Recall the reported log10(IC50) of Cc1ccc(S(=O)(=O)n2c(=O)[nH]c3ccc(Cl)cc32)c(C)c1 when tested on Human immunodeficiency virus type 1 reverse transcriptase (Human immunodeficiency virus 1).
Resp: 2.80

Req: Under Human immunodeficiency virus type 1 reverse transcriptase (Human immunodeficiency virus 1), report log10(IC50) for Cc1ccc(S(=O)(=O)n2c(=O)[nH]c3ccc(Cl)cc32)cc1C
Resp: 0.60

Req: With Human immunodeficiency virus type 1 reverse transcriptase (Human immunodeficiency virus 1) as the test system, provide measured log10(IC50) for this compound: O=c1[nH]c2ccc(Cl)cc2n1S(=O)(=O)c1cc(C(F)(F)F)cc(C(F)(F)F)c1
Resp: 2.49

Req: System Human immunodeficiency virus type 1 reverse transcriptase (Human immunodeficiency virus 1). Read-out log10(IC50). Item O=c1[nH]c2ccc(Cl)cc2n1S(=O)(=O)c1cccc(OC(F)(F)F)c1 . Report value.
Resp: 2.48

Req: Report value: log10(IC50), system: Human immunodeficiency virus type 1 reverse transcriptase (Human immunodeficiency virus 1), compound: Cc1c(C)c(C)c(S(=O)(=O)n2c(=O)[nH]c3ccc(Cl)cc32)c(C)c1C
Resp: 1.67

Req: For Human immunodeficiency virus type 1 reverse transcriptase (Human immunodeficiency virus 1), give the measured log10(IC50) of the entry Cc1ccccc1S(=O)(=O)n1c(=O)[nH]c2ccc(Cl)cc21
Resp: 2.43

Req: # return log10(IC50) for COc1cccc(S(=O)(=O)n2c(=O)[nH]c3ccc(Cl)cc32)c1 , test system: Human immunodeficiency virus type 1 reverse transcriptase (Human immunodeficiency virus 1)
Resp: 1.72

Req: Supply log10(IC50) measured with Human immunodeficiency virus type 1 reverse transcriptase (Human immunodeficiency virus 1) for Cc1cc(C)cc(S(=O)(=O)n2c(=O)[nH]c3ccc(Cl)nc32)c1 .
Resp: 1.30

Req: Please report log10(IC50) with Human immunodeficiency virus type 1 reverse transcriptase (Human immunodeficiency virus 1) for item Cc1ccc(C)c(S(=O)(=O)n2c(=O)[nH]c3ccc(Cl)cc32)c1 .
Resp: 1.69

Req: Consider the compound O=c1[nH]c2ccc(Cl)cc2n1S(=O)(=O)c1cccc(C(F)(F)F)c1 tested on Human immunodeficiency virus type 1 reverse transcriptase (Human immunodeficiency virus 1); state its log10(IC50).
Resp: 3.24

----------
# ASSAY_NAME: Selectivity index, ratio of CC50 for human MT4 cells to EC50 for HIV1 3B
# Type: toxicity, cell-based
# STATED_CONDITIONS: read-out: Ratio CC50/EC50
ATTRIBUTE_MEASURED: selectivity ratio

Req: Quote selectivity ratio reported for Cc1ccc(C)c(S(=O)(=O)n2c(=O)[nH]c3ccc(Cl)cc32)c1 please.
Resp: > 37100

Req: Specify selectivity ratio for Cc1ccc(S(=O)(=O)n2c(=O)[nH]c3ccc(Cl)cc32)cc1C and stop.
Resp: > 61900

Req: Fill in selectivity ratio for record O=c1[nH]c2ccc(Cl)cc2n1S(=O)(=O)c1cccc(OC(F)(F)F)c1
Resp: > 35

Req: Let me know recorded selectivity ratio for Cc1ccccc1S(=O)(=O)n1c(=O)[nH]c2ccc(Cl)cc21 , thanks.
Resp: > 201

Req: Give reported selectivity ratio value for O=c1[nH]c2ccc(Cl)cc2n1S(=O)(=O)c1cccc(C(F)(F)F)c1
Resp: > 664

Req: Give the reported selectivity ratio for this compound. Cc1cccc(S(=O)(=O)n2c(=O)[nH]c3ccc(Cl)cc32)c1
Resp: > 20500

----------
# ASSAY_SYSTEM: Human immunodeficiency virus type 1 reverse transcriptase (Human immunodeficiency virus 1, UniProt Q72547, L100I)
# ASSAY_NAME: Inhibition of HIV1 reverse transcriptase L100I mutant by RNA-dependent DNA polymerase activity assay
Task for the reader: assign each of the following compounds its reported IC50.
// return numeric value only (unit: nM, not printed)

Req: Read the entry Cc1cccc(S(=O)(=O)n2c(=O)[nH]c3ccc(Cl)cc32)c1 and write its reported IC50.
Resp: 70

Req: Provide IC50 value for the following compound: Cc1cc(C)cc(S(=O)(=O)n2c(=O)[nH]c3ccc(Cl)nc32)c1
Resp: 70

Req: Read off the recorded IC50 for Cc1c(C)c(C)c(S(=O)(=O)n2c(=O)[nH]c3ccc(Cl)cc32)c(C)c1C
Resp: 80
